In this section we review reported Binding Signal with 300 sec Association values for a set of binders.
Biological target: T1, recombinant human GREM1 (hGREM1-His; C-terminal 10His tagged, R&D, #5190-GR) (human, UniProt O60565 25-184)
T1 construct: range 25-184; also called recombinant human GREM1 with a C-terminal decahistidine tag
T1 sequence: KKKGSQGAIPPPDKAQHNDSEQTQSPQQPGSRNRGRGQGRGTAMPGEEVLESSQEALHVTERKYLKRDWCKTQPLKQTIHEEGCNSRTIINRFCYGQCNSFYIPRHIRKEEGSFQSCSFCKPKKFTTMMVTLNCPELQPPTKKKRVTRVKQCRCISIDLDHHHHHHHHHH
Assay: BLI Octet, mAb captured, 100 nM GREM1 + 5 uM heparin;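 further: octet Red96 biolayer interferometry at 25 °C, antibodies captured on anti-human IgG Fc biosensors, pH 7.4 HEPES buffer with 0.1 mg/mL BSA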
Hi! Could you send only the number? It should be in nm, unit omitted.

# annotated cases, reported Binding Signal with 300 sec Association shown
[[record]]
binder = "H4H6251P (antibody, human IgG4, V domains shown, H4H prefix = human IgG4 Fc) VH: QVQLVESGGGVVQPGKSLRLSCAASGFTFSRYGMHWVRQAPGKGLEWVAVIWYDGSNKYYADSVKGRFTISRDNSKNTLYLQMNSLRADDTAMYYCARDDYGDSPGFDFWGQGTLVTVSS VL: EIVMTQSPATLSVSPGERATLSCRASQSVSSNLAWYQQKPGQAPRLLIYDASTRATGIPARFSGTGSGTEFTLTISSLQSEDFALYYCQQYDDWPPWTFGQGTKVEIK"
measured_value = 0.36

[[record]]
binder = "H4H6260P (antibody, human IgG4, V domains shown, H4H prefix = human IgG4 Fc) VH: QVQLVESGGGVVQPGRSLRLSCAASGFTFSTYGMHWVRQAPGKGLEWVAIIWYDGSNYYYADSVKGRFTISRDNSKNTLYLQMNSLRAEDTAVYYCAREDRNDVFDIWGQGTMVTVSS VL: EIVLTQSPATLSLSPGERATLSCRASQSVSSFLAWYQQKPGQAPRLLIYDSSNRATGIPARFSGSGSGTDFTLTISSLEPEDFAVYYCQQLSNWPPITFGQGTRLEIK"
measured_value = 0.37


# next binder below
Q) Given the binder H4H6245P (antibody, human IgG4, V domains shown, H4H prefix = human IgG4 Fc) VH: EVQLVESGGGLVQPGGSLRLSCAASGFTFNSFWMSWVRQAPGKGLEWVANIKQDGSEKYYVDSVKGRFTISRDNAKNSVYLQMNSLRAEDTAVYYCARDLVTSFDYWGQGTLVTVSS VL: DIQMTQSPSSLSASVGDRVTITCQASQDINNYLNWYQQKPGKAPKLLIYDASYLETGVPSGFSGSGSGTDFTFTISSLQPEDIATYYCQQYDSLPYTFGQGTKLEIK , what is its reported Binding Signal with 300 sec Association?
A) 0.22
